Measured protein stability index accompanies every entry in the list below.
B1: FAM9B (parent)
chain: EDLTAKRKRMKMDKTCSKTKNKSK

# Variants of: B1
# assay-notes: protein stability index of a GFP-peptide fusion (GPS, HEK-293T) (PSI 1-6); higher = more stable;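 note: lentivirally expressed fusions sorted by FACS into six bins by GFP to DsRed ratio, PSI derived from sequencing read proportions per bin multiplied by bin number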
# measurement-setup: c terminus: a fixed tail appended
metric-name: protein stability index

# mutant-id, recorded-value
data = [
    ("S17V", 4.88),
    ("K11A", 5.04),
    ("M12Q", 5.03),
    ("T4E", 5),
    ("N21L", 4.93),
    ("R7N", 4.93),
]
